Kindly state EC50 for each of the entries shown.
Test system: HIV-1
Conditions: HIV-1 infected CEM cells, 6 days, XTT; Tables VI-X
Answers are plain numbers, in nM.

As a guide, the following entries are already answered.
Molecule: Cl.Cl.Cn1cc(NC(=O)c2cc(NC(=O)c3cccc(C(=O)Nc4cc(C(=O)Nc5cc(C(=O)NCCC(=N)N)n(C)c5)n(C)c4)c3)cn2C)cc1C(=O)NCCC(=N)N [Compound 20b, dihydrochloride]
Quantitative Result: 3550
//
Molecule: Cl.Cl.Cn1cc(NC(=O)c2cc(NC(=O)/C=C/C(=O)Nc3cc(C(=O)Nc4cc(C(=O)NCCC(=N)N)n(C)c4)n(C)c3)cn2C)cc1C(=O)NCCC(=N)N [Compound 21b, dihydrochloride]
Quantitative Result: 1670
//
Molecule: Cl.Cl.Cn1cc(NC(=O)c2cc(NC(=O)c3ccc(C(=O)Nc4cc(C(=O)Nc5cc(C(=O)NCCC(=N)N)n(C)c5)n(C)c4)cc3)cn2C)cc1C(=O)NCCC(=N)N [Compound 19b, dihydrochloride]
Quantitative Result: 2080

Now for another entry.
What does the data say about its EC50? Entry: Cl.Cl.Cn1cc(NC(=O)c2cc(NC(=O)/C=C\C(=O)Nc3cc(C(=O)Nc4cc(C(=O)NCCC(=N)N)n(C)c4)n(C)c3)cn2C)cc1C(=O)NCCC(=N)N [Compound 22b, dihydrochloride]
4040
